tested on: MS2 coat protein; experiment: apparent KD of MS2 coat protein; designed switch direction (-1 OFF switch, 1 ON switch): -1; higher = weaker reporter binding; conditions: input ligand: FMN 200 uM
propertyName: apparent KD of MS2 coat protein (nM)
Numbers only, in nM.

Here's what some known entries look like.
querySequence	testTarget	apparent KD of MS2 coat protein (nM)
CGUCGAAAUGUAGGAUAUCUGCACGUGUAGUGCAGAGAAGGACAUGAGGAUCACCCAUGUAGAUCACGACGAAUUAAUUUAAUU [ENG1/5-C3] (Eterna round: R96, puzzle: Exclusion NG 1)	MS2 coat protein	468
CGGAAGAUCGAAGGAUAUUGAGACAAACAGUGUCAAGAAGGUUGGGAGGACACAUGAGGAUCACCCAUGUCCAACUUUUGACGG [Eternabot solution 26] (Eterna round: R96, puzzle: Exclusion NG 1)	MS2 coat protein	12.7
AGCUGUGGCCGAGGAUAUCUACAUGAGGAUCACCCAUGUAAAGGGUGUAUCGGGAAAACCUCGAUGGAGAAGGCGGUCUCAGCA [Eli eng2 - 047] (Eterna round: R96, puzzle: Exclusion NG 2)	MS2 coat protein	95.5
CGGUCCUGAGUGAGGAUAUUGUCAGGCGAAGCCUGCAAGAAGGUACUUGAGGAUCACCCAAGUACGCUCUUGGC [Estimama] (Eterna round: R97, puzzle: Brourd's mod of Exclusion 4)	MS2 coat protein	21.2

Consider the additional sequence presented here.
Quick one: give measured apparent KD of MS2 coat protein for GGGAAGGGAGGAUAUGAGGAAGAGAACAUGAGGAUCACCCAUGUGAGGCCUCAGGAUCGAUCAGAAGGCCCGAUCC [AK-MS2ROC-r4-exclusion5-15] (Eterna round: R97, puzzle: Exclusion 5)
297

----------
test system: K4 kissing-loop RNA reporter; test: apparent KD of K4 kissing-loop reporter; higher = weaker reporter binding; conditions: Eterna round: R107; input ligand: theophylline 20 uM;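 also: bound reporter read as fluorescence of individual clusters on recovered sequencing chips by microscopy, with normalized cluster intensities fitted with a binding model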
We use 400 nM as the dividing line for apparent KD of K4 kissing-loop reporter: on or above the line is Y, below is N.

Example entries and their recorded answers appear below.
querySequence	testTarget	label
GUGUAACGAGGAAACCUCGUUACACCCUCACGAGGACCGGUACGGCCGCCACUCGAGAGCUCGUGAGGAGUGAUGUUCCUCGUGA	K4 kissing-loop RNA reporter	Y
CAACGAGUGAUGGUCGUUGACGGCCAUCCCGAGGAUAUGGGAUUUUCCAGAAGGCGGGAUCGCCCGGAGUGAUGUUCCGUGAUUU [Same State FMN A GF 15]	K4 kissing-loop RNA reporter	N
UUAUCUAUAUUCGAUACCAGUACCCUUUGUGUUAAUCCUUUUAUCAGUGAUGUUGAUGUGUACCCUUGGCAGCGGGUAUGGGUUU [KL-XTheo-B15]	K4 kissing-loop RNA reporter	Y
AACGCUGGUGAAUAACACUAGCGAAAUUCGCGAGGACCGGUACGGCCGCCACUCGCUAACUGCGAGUGAUGUUCGAUAAUAAAAU [Mat - Mod of OpenEnded 3 - D7]	K4 kissing-loop RNA reporter	N
AAGCAUUCUUCGGAAUGCAGACCCGCUGAGGAGGAUAUGACGAAAGUCAGAAGGUUUCAGUGAUGUUGAGGCCUCCUCAAUGGUC [whbob_Ex_FMNA__2th182]	K4 kissing-loop RNA reporter	N
AAGUCAUACAGAAGGAGCGUGUUUUAUAAUUUAUUUUCAUGAUCGAGUGAUGUUCGAUAUACACAGGUAGGUCGCUGUAUAAUAA [JR_SSArginiB_Sub007]	K4 kissing-loop RNA reporter	N

Given UGAUACCAGACGGCCGCCACUGCACCAGUCAAUGACUGAGUGUGGUAAUGCUCAGUGAUGUUGAGUAGGACCGGGUCUGGUAUCU [Mod of Eli's TrypBX 8 v2] , state whether its apparent KD of K4 kissing-loop reporter is at least 400 nM.
N

Given UUUCCAGAUAAGUGGGAACACUCCAUAACAGAGGAUAUCAGAGCGCUGAGAAGGCUGUUUAUCAGUGAUGUUGAUAGUGUGGAGU [FMN A SS t2a] , state whether its apparent KD of K4 kissing-loop reporter is at least 400 nM.
Y

Given AAAAGAAAGUCGGCCGCCACUCAACGCAGUGAUGUUGCAAGACAGAAGACCAGUGAUGUUGGCCAGAGGACCGGGACAAAAGGCC [Same State Typtophan B GF 4] , state whether its apparent KD of K4 kissing-loop reporter is at least 400 nM.
Y

Given GGGUGAGCGCGAAGGAGCGCCCUGACAGGUUGCUGCCGUGGGCAGUGAUGUUGCUCAGUCCGGCAGGUAGGUCGCGUGCUCACCC , state whether its apparent KD of K4 kissing-loop reporter is at least 400 nM.
N

Given UUUUUGGAGAAUUAUAGUGAUGUUAUGAAGGAGGAUAUCUGGAGAUGGAGAAGGCCUAGUGGCUCAGCCCUCGCGGGUGGGUGGG [ExFMNA.aD] , state whether its apparent KD of K4 kissing-loop reporter is at least 400 nM.
Y

Given AACGUUUUGAGAAGGAGCGCGUUAAGCAGUGAUGUUGCUUUAUUUUAUCAAAUACAUAUAUCGCAGGUAGGUCGCUCAAUACGUA [JR_Nu_SSArginiB_Sub026] , state whether its apparent KD of K4 kissing-loop reporter is at least 400 nM.
N
